From: PubChem BioAssay (NCI)

# procedure-details: NCI Yeast Anticancer Drug Screen. Data for the wt2 strain (AID 169);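 note: 0% = growth of vehicle-treated yeast cultures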
# measurement-setup: S. cerevisiae wt2 strain growth inhibition; at 33.0 µM; active compounds read high
Compounds without any hit were thinned out: in the full panel of roughly 79,000, 15% have a hit.
Field: growth inhibition. Provide a value for each of the compounds that follow.
State just the number; it will be interpreted in %.

QUERY: # return recorded growth inhibition for input COC(COC(=O)N1CCN(C=O)CC1)C1=C(N2CC2)C(=O)C(C)=C(N2CC2)C1=O (stereo unspecified)
RESULT: -17

QUERY: # return recorded growth inhibition for input N#Cc1cc(N(CCCl)CCCl)c([N+](=O)[O-])cc1[N+](=O)[O-]
RESULT: 36

QUERY: # return recorded growth inhibition for input Nc1nc(N)c2c(Cl)c(CNc3ccc(C(=O)NC(CC(=O)O)C(=O)O)cc3)ccc2n1 (stereo unspecified)
RESULT: -1

QUERY: # return recorded growth inhibition for input COC(=O)C1=C(C(=O)OC)SC2(S1)C(C(=O)OC)=C(C(=O)OC)Sc1c2ssc1=O
RESULT: 96

QUERY: # return recorded growth inhibition for input COc1cc(C2c3cc4c(cc3[C@@H](Nc3ccc(N)cc3)C3COC(=O)[C@H]23)OCO4)cc(OC)c1O (stereo partly specified)
RESULT: 94

QUERY: # return recorded growth inhibition for input C[N+]1(CCCl)CC[N+](C)(CCCl)CC1 (stereo unspecified)
RESULT: 14

QUERY: # return recorded growth inhibition for input CC(C)CC(NC(=O)C(N)C(C)C)C(=O)NC(CCCCN)C(=O)Nc1ccc(N(CCCl)CCCl)cc1 (stereo unspecified)
RESULT: -74

QUERY: # return recorded growth inhibition for input O=[N+]([O-])c1cc(S(=O)(=O)F)ccc1Cl
RESULT: 85

QUERY: # return recorded growth inhibition for input Nc1nc(N)c(-c2ccc(Cl)c(Cl)c2)c(CP(Cl)(Cl)(Cl)Br)n1
RESULT: 80

QUERY: # return recorded growth inhibition for input Oc1cccnc1[Se]
RESULT: 97

QUERY: # return recorded growth inhibition for input O=P(CCCCP(=O)(c1ccccc1)c1ccccc1)(c1ccccc1)c1ccccc1.[Cl][Sn]([Cl])([c]1ccccc1)[c]1ccccc1
RESULT: 92

QUERY: # return recorded growth inhibition for input COc1cccc2c1C(=O)c1c(O)c3c(c(O)c1C2=O)C[C@@](O)(/C(C)=N\O)C[C@@H]3OC1CC(N)C(O)C(C)O1 (stereo partly specified)
RESULT: 25

QUERY: # return recorded growth inhibition for input Br[Se]c1ccccn1
RESULT: 99

QUERY: # return recorded growth inhibition for input CCN(CC)CCBr
RESULT: -3

QUERY: # return recorded growth inhibition for input Cc1c([N+](=O)[O-])oc2ccc3ccccc3c12
RESULT: 14

QUERY: # return recorded growth inhibition for input O=C1C=CC(=O)C1(Br)Br
RESULT: 97

QUERY: # return recorded growth inhibition for input Cc1ccc2c(c1)C1(C)c3cc(C)ccc3SP1S2 (stereo unspecified)
RESULT: 36

QUERY: # return recorded growth inhibition for input CC[PH+](CC)CC.CC[PH+](CC)CC.[Au]
RESULT: 98

QUERY: # return recorded growth inhibition for input O=C1C2CC(Cl)C(SSC3CC4C(=O)N(SC(Cl)(Cl)C(Cl)Cl)C(=O)C4CC3Cl)CC2C(=O)N1SC(Cl)(Cl)C(Cl)Cl (stereo unspecified)
RESULT: 97

QUERY: # return recorded growth inhibition for input CCC(=O)OC1CCn2c1nc1c2C(=O)C(C)=C(N2CC2)C1=O (stereo unspecified)
RESULT: -19

QUERY: # return recorded growth inhibition for input COc1cc(O)c2c(O)c3c(c4c2c1[C@]1(C4)C(C)=CCCC1(C)C)[C@H](O)[C@@]1(O)CC(=O)C(C(N)=O)=C(O)[C@@]1(O)C3=O
RESULT: 96
